Study system: Beta-secretase 1 (Homo sapiens, UniProt P56817)
Sequence (P56817 whole entry): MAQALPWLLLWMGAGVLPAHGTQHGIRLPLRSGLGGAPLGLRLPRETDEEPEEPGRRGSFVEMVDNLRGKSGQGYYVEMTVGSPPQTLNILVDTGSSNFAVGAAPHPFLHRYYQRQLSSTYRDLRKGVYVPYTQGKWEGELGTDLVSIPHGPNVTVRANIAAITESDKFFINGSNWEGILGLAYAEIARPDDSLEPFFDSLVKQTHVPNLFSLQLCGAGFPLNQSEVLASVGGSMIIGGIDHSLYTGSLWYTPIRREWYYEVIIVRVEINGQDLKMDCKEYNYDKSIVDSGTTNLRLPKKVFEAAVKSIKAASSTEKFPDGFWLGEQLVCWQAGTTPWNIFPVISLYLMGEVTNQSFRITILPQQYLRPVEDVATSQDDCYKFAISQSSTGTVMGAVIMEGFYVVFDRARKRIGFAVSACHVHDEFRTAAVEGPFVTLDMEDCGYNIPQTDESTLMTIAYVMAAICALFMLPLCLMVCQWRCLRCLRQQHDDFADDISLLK
Assay: Inhibition of human recombinant BACE1 using 7-methoxycoumarin-4-yl)acetyl-Ser-Glu-Val-Asn-Leu*Asp-Ala- Glu-Phe-Arg-Lys(2,4-dinitrophenyl)-Arg-Arg-NH2 as substrate by FRET assay
Where a SMILES comes first, the peptide text is derived from it. [ ]: non-standard residue; d: D form. The star is where a group is joined. Orotyl(5-F) = O=C(c1[nH]c(=O)[nH]c(=O)c1F)*; Dap = NC[C@H](N)C(=O)O
Readout type: IC50

Entry under test: `CC(C)C[C@H](NC(=O)[C@@H](NC(=O)[C@@H](N)CNC(=O)c1[nH]c(=O)[nH]c(=O)c1F)C(C)C)C(=O)N[C@@H](Cc1ccccc1)C(=O)N[C@@H](CC(N)=O)C(=O)O` . Its IC50 was 173 nM

Looking up `CC(C)C[C@H](NC(=O)[C@@H](NC(=O)[C@@H](N)CNC(=O)c1[nH]c(=O)[nH]c(=O)c1F)C(C)C)C(=O)N[C@@H](Cc1ccccc1)C(=O)N[C@H](C)C(=O)O` , I see its IC50 listed as 169 nM

IC50 recorded for this compound, `CC(C)C[C@H](NC(=O)[C@@H](NC(=O)[C@@H](N)CNC(=O)c1[nH]c(=O)[nH]c(=O)c1F)C(C)C)C(=O)N[C@@H](Cc1ccccc1)C(=O)N[C@@H](CO)C(=O)O` , is 263 nM

Documented IC50 of CC(C)C[C@H](NC(=O)[C@@H](NC(=O)[C@@H](N)CNC(=O)c1[nH]c(=O)[nH]c(=O)c1F)C(C)C)C(=O)N[C@@H](Cc1ccccc1)C(=O)O (H-[Dap](Orotyl(5-F))VLF-OH) : 184 nM

// IC50 lookup, compound = `CC(C)C[C@H](NC(=O)[C@@H](NC(=O)[C@@H](N)CNC(=O)c1[nH]c(=O)[nH]c(=O)c1F)C(C)C)C(=O)N[C@@H](Cc1ccccc1)C(=O)N[C@H](CO)C(=O)O` , result: 138 nM
